These entries and their values trace back to ChEMBL document CHEMBL1144566.

- Tested on: Mycobacterium tuberculosis
- assay-details: Antimycobacterial activity against drug-sensitive Mycobacterium tuberculosis H37Rv at 6.250 ug/mL relative to isoniazid by microplate alamar blue assay
- Format: functional
observed-property: inhibition at 6.25 µg/mL (%)
Numbers only, in %.

# batch size: 5; output inhibition at 6.25 µg/mL per entry
1. COc1ccc(/C=N/NC(=O)c2cc(C34CC5CC(CC(C5)C3)C4)c3ccccc3n2)c2ccccc12
2. O=C(N/N=C/c1ccnc2cc(Cl)ccc12)c1cc(C23CC4CC(CC(C4)C2)C3)c2ccccc2n1
3. O=C(NNCCCc1ccccc1)c1cc(C23CC4CC(CC(C4)C2)C3)c2ccccc2n1
4. O=C(NNCCc1ccccc1)c1cc(C23CC4CC(CC(C4)C2)C3)c2ccccc2n1
5. CCCNNC(=O)c1cc(C23CC4CC(CC(C4)C2)C3)c2ccccc2n1

[57, 95, 50, 65, 82]

====

- System: Mycobacterium tuberculosis
- assay-details: Antimycobacterial activity against drug-sensitive Mycobacterium tuberculosis H37Rv at 6.250 ug/mL relative to isoniazid by microplate alamar blue assay
- Type: functional
observed-property: inhibition at 6.25 µg/mL (%)
Answers are plain numbers, in %.

The following compounds have reported results that may help.
In [3]: df
Out[3]:
                                test_smiles  val
0  O=C(NN(CCc1ccccc1)CCc1ccccc1)c1cc(C23CC4CC(CC(C4)C2)C3)c2ccccc2n1   55
1  O=CNNC(=O)c1cc(C23CC4CC(CC(C4)C2)C3)c2ccccc2n1   19
2  NNC(=O)c1cc(C23CC4CC(CC(C4)C2)C3)c2ccccc2n1   99

# batch size: 2; output inhibition at 6.25 µg/mL per entry
1. C=CCN(CC=C)NC(=O)c1cc(C23CC4CC(CC(C4)C2)C3)c2ccccc2n1
2. CC(C)NNC(=O)c1cc(C23CC4CC(CC(C4)C2)C3)c2ccccc2n1

[22, 51]

====

- Tested on: Mycobacterium tuberculosis
- assay-details: Antimycobacterial activity against drug-sensitive Mycobacterium tuberculosis H37Rv by microplate alamar blue assay
- Assay type: functional, organism-based
observed-property: IC50 (µM)
Give bare numbers, in µM.

The following compounds have reported results that may help.
                                   compound         experimental_target  observed_property     val
0  O=C(NNc1ccccc1F)c1cc(C23CC4CC(CC(C4)C2)C3)c2ccccc2n1  Mycobacterium tuberculosis               IC50   0.151
1  O=C(N/N=C/c1ccccc1Cl)c1cc(C23CC4CC(CC(C4)C2)C3)c2ccccc2n1  Mycobacterium tuberculosis               IC50  0.0229
2  CCC(C)NNC(=O)c1cc(C23CC4CC(CC(C4)C2)C3)c2ccccc2n1 (centres undefined)  Mycobacterium tuberculosis               IC50   0.513
3  O=C(N/N=C/c1ccnc2ccccc12)c1cc(C23CC4CC(CC(C4)C2)C3)c2ccccc2n1  Mycobacterium tuberculosis               IC50  0.0692
4  O=C(N/N=C/c1ccncc1)c1cc(C23CC4CC(CC(C4)C2)C3)c2ccccc2n1  Mycobacterium tuberculosis               IC50    6.46
5  O=C(NNC1CCCCC1)c1cc(C23CC4CC(CC(C4)C2)C3)c2ccccc2n1  Mycobacterium tuberculosis               IC50  0.0776
6  CC(C)NNC(=O)c1cc(C23CC4CC(CC(C4)C2)C3)c2ccccc2n1  Mycobacterium tuberculosis               IC50    16.6
7  C=CCN(CC=C)NC(=O)c1cc(C23CC4CC(CC(C4)C2)C3)c2ccccc2n1  Mycobacterium tuberculosis               IC50      55
8  O=C(NN(CCCc1ccccc1)CCCc1ccccc1)c1cc(C23CC4CC(CC(C4)C2)C3)c2ccccc2n1  Mycobacterium tuberculosis               IC50    13.8
9  CC/C=N/NC(=O)c1cc(C23CC4CC(CC(C4)C2)C3)c2ccccc2n1  Mycobacterium tuberculosis               IC50    7.76

# batch size: 5; output IC50 per entry
1. O=C(N/N=C/c1ccccn1)c1cc(C23CC4CC(CC(C4)C2)C3)c2ccccc2n1
2. COc1ccc(/C=N/NC(=O)c2cc(C34CC5CC(CC(C5)C3)C4)c3ccccc3n2)cc1
3. O=C(NNc1ccc(F)cc1)c1cc(C23CC4CC(CC(C4)C2)C3)c2ccccc2n1
4. O=C(N/N=C/c1ccc[nH]1)c1cc(C23CC4CC(CC(C4)C2)C3)c2ccccc2n1
5. CCCCCCN(CCCCCC)NC(=O)c1cc(C23CC4CC(CC(C4)C2)C3)c2ccccc2n1

2.88
56.2
1.12
0.0794
7.24

# batch size: 2; output IC50 per entry
1. O=C(NNCCc1ccccc1)c1cc(C23CC4CC(CC(C4)C2)C3)c2ccccc2n1
2. CCCN(CCC)NC(=O)c1cc(C23CC4CC(CC(C4)C2)C3)c2ccccc2n1

7.94
5.13

# batch size: 2; output IC50 per entry
1. O=C(N/N=C/c1ccc(C(F)(F)F)cc1C(F)(F)F)c1cc(C23CC4CC(CC(C4)C2)C3)c2ccccc2n1
2. COc1ccc2ccccc2c1/C=N/NC(=O)c1cc(C23CC4CC(CC(C4)C2)C3)c2ccccc2n1

[6.46, 5.75]

====

Please provide measured inhibition at 6.25 µg/mL for the entries that follow.
- System: Mycobacterium tuberculosis
- assay-details: Antimycobacterial activity against drug-sensitive Mycobacterium tuberculosis H37Rv at 6.250 ug/mL relative to isoniazid by microplate alamar blue assay
- Format: functional
Answers are plain numbers, in %.

The following compounds have reported results that may help.
In [3]: df
Out[3]:
                                test_smiles         observed_property  value_unit  val
0  O=C(NN(CCCc1ccccc1)CCCc1ccccc1)c1cc(C23CC4CC(CC(C4)C2)C3)c2ccccc2n1  inhibition at 6.25 µg/mL           %   45
1  O=C(N/N=C/c1cccc(O)c1)c1cc(C23CC4CC(CC(C4)C2)C3)c2ccccc2n1  inhibition at 6.25 µg/mL           %   99
2  O=C(NNc1ccc(F)cc1)c1cc(C23CC4CC(CC(C4)C2)C3)c2ccccc2n1  inhibition at 6.25 µg/mL           %   93
3  O=C(N/N=C/c1c(F)c(F)c(F)c(F)c1F)c1cc(C23CC4CC(CC(C4)C2)C3)c2ccccc2n1  inhibition at 6.25 µg/mL           %   16
4  CCCCNNC(=O)c1cc(C23CC4CC(CC(C4)C2)C3)c2ccccc2n1  inhibition at 6.25 µg/mL           %   55

State its inhibition at 6.25 µg/mL for this compound: O=C(N/N=C/c1c2ccccc2cc2ccccc12)c1cc(C23CC4CC(CC(C4)C2)C3)c2ccccc2n1
66

====

- System: Mycobacterium tuberculosis
- assay-details: Antimycobacterial activity against drug-sensitive Mycobacterium tuberculosis H37Rv at 6.250 ug/mL relative to isoniazid by microplate alamar blue assay
- Assay type: functional
observed-property: inhibition at 6.25 µg/mL (%)
Give bare numbers, in %.

>>> print(df.to_string())
                                test_smiles         observed_property  val
0  CCCCCCN(CCCCCC)NC(=O)c1cc(C23CC4CC(CC(C4)C2)C3)c2ccccc2n1  inhibition at 6.25 µg/mL   65
1  COc1ccc2ccccc2c1/C=N/NC(=O)c1cc(C23CC4CC(CC(C4)C2)C3)c2ccccc2n1  inhibition at 6.25 µg/mL   69
2  O=C(N/N=C/c1ccccn1)c1cc(C23CC4CC(CC(C4)C2)C3)c2ccccc2n1  inhibition at 6.25 µg/mL   84
3  O=C(N/N=C/c1ccc(O)cc1)c1cc(C23CC4CC(CC(C4)C2)C3)c2ccccc2n1  inhibition at 6.25 µg/mL   73
4  CN(C)c1ccc(/C=N/NC(=O)c2cc(C34CC5CC(CC(C5)C3)C4)c3ccccc3n2)c2ccccc12  inhibition at 6.25 µg/mL   79

# batch size: 4; output inhibition at 6.25 µg/mL per entry
1. CC/C=N/NC(=O)c1cc(C23CC4CC(CC(C4)C2)C3)c2ccccc2n1
2. COc1ccc(/C=N/NC(=O)c2cc(C34CC5CC(CC(C5)C3)C4)c3ccccc3n2)cc1
3. CC(C)(C)/C=N/NC(=O)c1cc(C23CC4CC(CC(C4)C2)C3)c2ccccc2n1
4. CC(C)/C=N/NC(=O)c1cc(C23CC4CC(CC(C4)C2)C3)c2ccccc2n1

[69, 20, 10, 63]

====

Please provide measured IC50 for the entries that follow.
- System: Mycobacterium tuberculosis
- assay-details: Antimycobacterial activity against drug-sensitive Mycobacterium tuberculosis H37Rv by microplate alamar blue assay
- Assay type: functional, organism-based
Answers are plain numbers, in µM.

The following molecules have reported results that may help.
                                test_smiles         experimental_target     val
0  O=C(N/N=C/c1ccco1)c1cc(C23CC4CC(CC(C4)C2)C3)c2ccccc2n1  Mycobacterium tuberculosis  0.0794
1  O=C(NNCCCc1ccccc1)c1cc(C23CC4CC(CC(C4)C2)C3)c2ccccc2n1  Mycobacterium tuberculosis    14.1
2  O=C(N/N=C/c1cccc(O)c1)c1cc(C23CC4CC(CC(C4)C2)C3)c2ccccc2n1  Mycobacterium tuberculosis   0.148

# batch size: 3; output IC50 per entry
1. COc1ccc(/C=N/NC(=O)c2cc(C34CC5CC(CC(C5)C3)C4)c3ccccc3n2)c2ccccc12
2. O=C(N/N=C/c1cccnc1)c1cc(C23CC4CC(CC(C4)C2)C3)c2ccccc2n1
3. O=C(N/N=C/c1ccccc1)c1cc(C23CC4CC(CC(C4)C2)C3)c2ccccc2n1

9.55
13.5
0.0776
